We begin with a simple list: items and their reported mortality at 12.5 ppm.
# Tested on: Bemisia tabaci
# procedure-text: Activity against Bemisia tabaci (cotton white fly), cotton leaf discs
# Format: in vivo
# condition-notes: foliar, concentration 12.5 ppm
quantity-name: mortality at 12.5 ppm (%)

CCS(=N)(=O)c1cc(C2(C#N)CC2)ccc1-c1nc2cc(C(F)(F)F)ncc2n1C (single isomer, unassigned) [Compound P18-B]: 80
CCS(=N)(=O)c1cc(C2(C#N)CC2)cnc1-c1nc2cc(C(F)(F)F)ncc2n1C (single isomer, unassigned) [Compound P10-A]: 80
CCS(=N)(=O)c1cc(C2(C#N)CC2)ccc1-c1nc2cc(C(F)(F)F)ncc2n1C (racemic) [Described in WO19/234158 as compound P13, reference compound]: 0
CCS(=N)(=O)c1cc(C2(C#N)CC2)cnc1-c1nc2cc(C(F)(F)F)cnc2n1C (single isomer, unassigned) [Compound P16-A]: 100
CCS(=N)(=O)c1cc(C2(C#N)CC2)cnc1-c1nc2cc(C(F)(F)F)ncc2n1C (racemic) [reference compound]: 50
CCS(=N)(=O)c1cc(C2(C#N)CC2)cnc1-c1nc2cc(C(F)(F)F)cnc2n1C (racemic) [Described in WO19/234158 as compound P6, reference compound]: 50

----------
# percent control (mortality, anti-feedant effect or growth inhibition) at 200 ppm per record follows
# Test system: Spodoptera littoralis
# procedure-text: Activity against Spodoptera littoralis (Egyptian cotton leaf worm), cotton leaf discs
# Type: in vivo
# condition-notes: foliar, 72 h, application rate 200 ppm, L1 larvae, 3 days after infestation, read-out: control (mortality, anti-feeding effect or growth inhibition)
quantity-name: percent control (mortality, anti-feedant effect or growth inhibition) at 200 ppm

CCS(=N)(=O)c1cc(OC(C)(C)C#N)cnc1-c1cn2cnc(C(F)(F)F)cc2n1 (racemic): ≥ 80%
CCn1c(C(F)(F)F)cc2nc(-c3ncc(OC(C)(C)C#N)cc3S(=N)(=O)CC)n(C)c2c1=O (racemic) [Compound P19]: ≥ 80%
CCS(=N)(=O)c1cc(OC(C)(C)C#N)cnc1-c1nc2cc(C(F)(F)F)cnc2n1C (racemic): ≥ 80%
CCS(=N)(=O)c1cc(OC(C)(C)C#N)c(C)nc1-c1nc2cc(C(F)(F)F)cnc2n1C (racemic) [Compound P5]: ≥ 80%
CCS(=N)(=O)c1cc(OC(C)(C)C#N)cnc1-c1nc2cc(C(F)(F)F)ncc2n1C (racemic) [Compound P13]: ≥ 80%
CCS(=N)(=O)c1cc(C2(C#N)CC2)cnc1-c1nc2cc(C(F)(F)F)n(OC)c(=O)c2n1C (racemic) [Compound P8]: ≥ 80%
CCS(=N)(=O)c1cc(OC(C)(C)C#N)c(C)nc1-c1nc2cc(C(F)(F)F)ncc2n1C (racemic) [Compound P17]: ≥ 80%
CCn1c(C(F)(F)F)cc2nc(-c3ncc(C4(C#N)CC4)cc3S(=N)(=O)CC)n(C)c2c1=O (single isomer, unassigned) [Compound P14-A]: ≥ 80%
CCn1c(C(F)(F)F)cc2nc(-c3ncc(C4(C#N)CC4)cc3S(=N)(=O)CC)n(C)c2c1=O (racemic) [Compound P14]: ≥ 80%
CCS(=N)(=O)c1cc(OC(C)(C)C#N)c(C)nc1-c1nc2cc(C(F)(F)F)cnc2n1C (single isomer, unassigned) [Compound P5-A]: ≥ 80%
CC[S@@](=N)(=O)c1cc(OC(C)(C)C#N)cnc1-c1nc2cc(C(F)(F)F)cnc2n1C: ≥ 80%
CCS(=N)(=O)c1cc(C2(C#N)CC2)ccc1-c1nc2cc(C(F)(F)F)cnc2n1C (racemic) [Compound P6]: ≥ 80%
CCS(=N)(=O)c1cc(OC(C)(C)C#N)cnc1-c1nc2cc(C(F)(F)F)ncc2n1C (single isomer, unassigned) [Compound P13-B]: ≥ 80%
